TARGET OF ASSAY: T1, cynomolgus monkey TNF (cynomolgus monkey, UniProt P79337 77-233, limits assumed, biotin label in the ELISA (site not stated))
T1 construct: also called cynoTNF; cyno TNF
T1 sequence (P79337 77-233 limits assumed): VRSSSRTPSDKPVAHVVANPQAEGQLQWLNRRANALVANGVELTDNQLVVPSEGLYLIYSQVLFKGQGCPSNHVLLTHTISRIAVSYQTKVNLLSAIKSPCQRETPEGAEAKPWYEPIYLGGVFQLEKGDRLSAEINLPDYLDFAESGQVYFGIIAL
EXPERIMENT SUMMARY: ELISA; IgG captured on goat anti-human IgG-Fc, serially diluted biotinylated cyno TNF, streptavidin-HRP
PROPERTY MEASURED: pEC50
// pEC50 is dimensionless: -log10 of concentration (M)

BINDER: AE11-5 AM4 (antibody, V domains shown, Full length IgG converted from scFv clone J703M1S3#30; Human IgG1 (hCg1,z,non-a,mut(234,235)) with human kappa; also called J703M1S3#30) VH: EVQLVQSGAEVKKPGSSVKVSCKASGGTFSWYAISWVRQAPGQGLEWMGGITPILGSPIYAQKFQGRVTITADESTSTVYMELSSLRSEDTAVYYCARGVYYDPKRADYWGQGTLVTVSS VL: EIVLTQSPDFQSVTPKEKVTITCRASQRIGSSLHWYQQKPDQSPKLLIKHASQSVSGVPSRFSGSGSGTDFTLTINSLEAEDAATYYCHQSRSSPPPTFGQGTKVEIK
PROPERTY MEASURED: pEC50
RESULT VALUE: 6.12

**Query** Which value of pEC50 has been reported for AE11-5 AM9 (antibody, V domains shown, Full length IgG converted from scFv clone J703M1S3#69; Human IgG1 (hCg1,z,non-a,mut(234,235)) with human kappa; also called J703M1S3#69) VH: EVQLVQSGAEVKKPGSSVKVSCKASGGTFSWYAISWVRQAPGQGLEWMGGITPILGSPIYAQKFQGRVTITADESTSTVYMELSSLRSEDTAVYYCARGIYYDPKRADYWGQGTLVTVSS VL: EIVLTQSPDFQSVTPKEKVTITCRASQSIGSSLHWYQQKPDQSPKLLIKHVSQSLSGVPSRFSGSGSGTDFTLTINSLEAEDAATYYCHQRSSSPSPTFGQGTKVEIK in the records?
**Result** 8.28

**Query** Same again, this time with AE11-5 AM5 (antibody, V domains shown, Full length IgG converted from scFv clone J703M1S3#33; Human IgG1 (hCg1,z,non-a,mut(234,235)) with human kappa; also called J703M1S3#33) VH: EVQLVQSGAEVKKPGSSVKVSCKASGGTFSWYPISWVRQAPGQGLEWMGGITPILGAGIYAQKFQGRVTITADESTSTVYMELSSLRSEDTAVYYCARGVYYDFKRADYWGQGTLVTVSS VL: EIVLTQSPDFQSVTPKEKVTITCRASQSIGSSLHWYQQKPDQSPKLLIKHASQSTSGVPSRFSGSGSGTDFTLTINSLEAEDAATYYCHQSSSSPPSTFGQGTKVEIK
**Result** 8.66

**Query** Same again, this time with AE11-5 AM10 (antibody, V domains shown, Full length IgG converted from scFv clone J703M1S3#90; Human IgG1 (hCg1,z,non-a,mut(234,235)) with human kappa; also called J703M1S3#90) VH: EVQLVQSGAEVKKPGSSVKVSCKASGGTFSWYAISWVRQAPGQGLEWMGGITPILGSPIYAQKFQGRVTITADESTSTVYMELSSLRSEDTAVYYCARGVYYDYKRADYWGQGTLVTVSS VL: EIVLTQSPDFQSVTPKEKVTITCRASQSIGSNLHWYQQKPDQSPKLLIKHASQSISGVPSRFSGSGSGTDFTLTINSLEAEDAATYYCHQTRTSPPLTFGQGTKVEIK
**Result** 9.55

// data source = patent US20130164256A1
